Measured EC50 of individual entries
Target: GABAB(1A,2) receptor heterodimer (Homo sapiens, UniProt O75899+Q9UBS5)
Construct: expressed in transfected cells; membrane preparation
Sequence (Q9UBS5 15-961 limits assumed): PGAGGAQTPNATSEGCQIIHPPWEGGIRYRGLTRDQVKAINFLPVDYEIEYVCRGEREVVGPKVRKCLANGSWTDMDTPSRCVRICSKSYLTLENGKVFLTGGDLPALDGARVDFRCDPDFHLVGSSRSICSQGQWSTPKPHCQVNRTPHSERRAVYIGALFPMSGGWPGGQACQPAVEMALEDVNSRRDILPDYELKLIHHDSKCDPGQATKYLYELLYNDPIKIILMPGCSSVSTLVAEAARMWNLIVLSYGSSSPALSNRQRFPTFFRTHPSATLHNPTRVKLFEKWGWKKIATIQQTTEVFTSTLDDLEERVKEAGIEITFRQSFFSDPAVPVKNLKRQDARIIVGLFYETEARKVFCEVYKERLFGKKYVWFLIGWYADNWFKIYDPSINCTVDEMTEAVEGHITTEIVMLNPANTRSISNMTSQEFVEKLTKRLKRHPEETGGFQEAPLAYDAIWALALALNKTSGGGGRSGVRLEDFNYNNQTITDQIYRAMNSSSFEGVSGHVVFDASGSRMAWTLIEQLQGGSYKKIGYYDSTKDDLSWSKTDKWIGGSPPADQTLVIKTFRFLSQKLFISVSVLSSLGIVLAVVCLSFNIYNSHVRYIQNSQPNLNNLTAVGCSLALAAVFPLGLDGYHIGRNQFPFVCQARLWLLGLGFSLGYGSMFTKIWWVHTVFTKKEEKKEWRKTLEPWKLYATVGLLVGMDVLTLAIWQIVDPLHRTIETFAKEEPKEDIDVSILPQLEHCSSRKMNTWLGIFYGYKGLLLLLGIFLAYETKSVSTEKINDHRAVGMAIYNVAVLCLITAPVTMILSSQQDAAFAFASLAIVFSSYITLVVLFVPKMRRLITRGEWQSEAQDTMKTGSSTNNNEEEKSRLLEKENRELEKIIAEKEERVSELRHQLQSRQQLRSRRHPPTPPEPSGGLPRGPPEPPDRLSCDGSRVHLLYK
Sequence (O75899 42-941): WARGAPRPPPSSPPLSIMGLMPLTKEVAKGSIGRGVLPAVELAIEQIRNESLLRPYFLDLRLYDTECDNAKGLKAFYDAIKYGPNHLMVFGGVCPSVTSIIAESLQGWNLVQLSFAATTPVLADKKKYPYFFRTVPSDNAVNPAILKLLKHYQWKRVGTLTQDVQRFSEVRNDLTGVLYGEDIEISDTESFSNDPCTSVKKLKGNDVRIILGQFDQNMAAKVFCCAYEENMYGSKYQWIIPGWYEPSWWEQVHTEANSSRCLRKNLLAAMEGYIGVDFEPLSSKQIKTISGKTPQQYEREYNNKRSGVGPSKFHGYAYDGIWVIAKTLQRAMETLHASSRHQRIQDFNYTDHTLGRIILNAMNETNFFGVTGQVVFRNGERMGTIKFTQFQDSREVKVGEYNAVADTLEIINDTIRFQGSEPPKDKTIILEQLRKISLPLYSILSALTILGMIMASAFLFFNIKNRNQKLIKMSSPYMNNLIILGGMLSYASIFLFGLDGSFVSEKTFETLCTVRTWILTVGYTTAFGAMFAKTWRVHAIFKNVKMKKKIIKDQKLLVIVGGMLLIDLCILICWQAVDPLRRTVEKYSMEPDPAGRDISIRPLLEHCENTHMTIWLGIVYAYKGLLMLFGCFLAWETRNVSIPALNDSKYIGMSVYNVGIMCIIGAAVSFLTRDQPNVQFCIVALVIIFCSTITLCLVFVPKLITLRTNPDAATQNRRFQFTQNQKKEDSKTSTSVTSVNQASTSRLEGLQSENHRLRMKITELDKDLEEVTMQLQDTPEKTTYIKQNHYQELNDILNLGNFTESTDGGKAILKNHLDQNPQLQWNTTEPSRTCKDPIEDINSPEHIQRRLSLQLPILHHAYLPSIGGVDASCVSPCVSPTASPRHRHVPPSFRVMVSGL
Experiment: GTPγS35 radioligand filtration-binding assay for determination of PAM potency
Assay type: biochemical
Settings: membranes of CHO-K1 cells expressing GABABR1a/GABABR2; concentration required to reduce GABA's EC50 by 50%; PAM at 10, 1, 0.1 and 0.01 μM; read-out: Mean (EC50 derived) PAM EC50

Compound: O=c1c2nccnc2n(CC2CCCCC2)c(=O)n1Cc1ccc(Cl)cc1 [Example 4]
Units: nM
EC50: 600
//
Compound: COc1ccc(Cn2c(=O)n(Cc3ccc(Cl)cc3)c(=O)c3nccnc32)cc1 [Example 9]
Units: nM
EC50: 7000
//
Compound: O=C(c1ccccc1)c1ccc(Cn2c(=O)n(Cc3ccc(Cl)cc3)c(=O)c3nccnc32)cc1 [Example 10]
Units: nM
EC50: 800
//
Compound: CCCn1c(=O)n(Cc2ccc(Cl)cc2)c(=O)c2nc3c(nc21)CCCC3 [Example 20]
Units: nM
EC50: 800
//
Compound: CC(C)(C)CCn1c(=O)n(Cc2ccc(Cl)cc2)c(=O)c2nccnc21 [Example 6]
Units: nM
EC50: 800
//
Compound: CCCn1c(=O)n(Cc2ccc(Cl)cc2)c(=O)c2nccnc21 [Example 2]
Units: nM
EC50: 4300
